# TARGET ENTITY: human Adenosine A2b receptor (Homo sapiens (Human), UniProt P29275)
# Sequence (P29275 whole entry): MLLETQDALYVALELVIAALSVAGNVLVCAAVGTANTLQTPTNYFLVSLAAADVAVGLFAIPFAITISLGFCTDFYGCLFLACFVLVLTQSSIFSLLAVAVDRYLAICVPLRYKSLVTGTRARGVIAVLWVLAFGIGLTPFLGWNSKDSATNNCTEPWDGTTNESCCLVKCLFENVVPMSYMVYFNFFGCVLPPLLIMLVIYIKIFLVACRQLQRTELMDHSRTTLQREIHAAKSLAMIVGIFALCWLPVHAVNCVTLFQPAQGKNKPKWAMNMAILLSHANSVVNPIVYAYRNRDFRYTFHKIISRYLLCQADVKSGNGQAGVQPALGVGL
# PROTOCOL DESCRIPTION: Adenosine receptor TR-FRET binding assay (A2b)
# CONDITION SUMMARY: TR-FRET, inhibition of binding of 30 nM CA200645, CHO cell membranes
pKi: −log10 of the molar value.
QUANTITY KIND: pKi

Cc1cc(-c2sc(NC(=O)N3CCC34COC4)nc2-c2cccc(C#N)c2)cc(C)n1 = 8.17

[a] Cc1cc(-c2sc(NC(=O)N3CCN(C4COC4)CC3)nc2-c2cccc(C#N)c2)cc(CO)n1
[b] Cc1cc(-c2sc(NC(=O)N3CCOC[C@@H]3C)nc2-c2cccc(C#N)c2)cc(C)n1
Between item a and item b , which reported pKi is smaller? Choose, then provide that item's label.
a
